The measurements presented in this section are drawn from paper PMC10683025.

Test system: HER2+ breast cancer cell lines
Assay: CellTiter-Glo cell viability assay
Type: cell-based
Details: Homo sapiens; range over cell lines; read-out: IC50's in HER2+ breast cancer cell lines
quantityName: IC50

Reported IC50 ( `COc1cc2ncnc(Nc3cccc(Cl)c3F)c2cc1OCCON1CCN(C)CC1` ) = 990 to 1600 nM

###

Experiment: MDCKII-MDR1 permeability
Type: in vitro ADME, canine
Conditions: dog, MDCK-MDR1, MDCKII-MDR1; read-out: Recovery% (BL-AP)
A collection of compounds and their measured recovery at 2 h, 1 μM
Unit % implied. Number only.

Example results:
[[record]]
compound = "COc1cc2ncnc(Nc3ccc(F)c(Cl)c3)c2cc1OCCON1CCOCC1"
quantityname = "recovery at 2 h, 1 μM"
reportedmeasurement = 66.4

[[record]]
compound = "COc1cc2ncnc(Nc3cccc(Cl)c3F)c2cc1OCCON1CCOCC1"
quantityname = "recovery at 2 h, 1 μM"
reportedmeasurement = 76.4

[[record]]
compound = "COCCc1ccc(OCC(O)CNC(C)C)cc1 (stereo not drawn) [Metoprolol, reference compound]"
quantityname = "recovery at 2 h, 1 μM"
reportedmeasurement = 98.4

[[record]]
compound = "C[C@H]1O[C@@H](O[C@H]2[C@@H](O)C[C@H](O[C@H]3[C@@H](O)C[C@H](O[C@H]4CC[C@@]5(C)[C@H](CC[C@@H]6[C@@H]5C[C@@H](O)[C@]5(C)[C@@H](C7=CC(=O)OC7)CC[C@]65O)C4)O[C@@H]3C)O[C@@H]2C)C[C@H](O)[C@@H]1O [Digoxin, reference compound]"
quantityname = "recovery at 2 h, 1 μM"
reportedmeasurement = 100

[[record]]
compound = "COc1cc2ncnc(Nc3cccc(Cl)c3F)c2cc1OCCON1CCN(C)CC1"
quantityname = "recovery at 2 h, 1 μM"
reportedmeasurement = 90


// below: recovery at 2 h, 1 μM requested for another compound
Reported recovery at 2 h, 1 μM ( `COc1cc2ncnc(Nc3ccc(F)c(Cl)c3)c2cc1OCCON1CCN(C)CC1` ) = 76.1

###

Target: CYP2C9 (Homo sapiens, UniProt P11712)
Construct: tissue BD Gentest; host or cells: pooled human liver microsomes
Sequence (P11712 whole entry): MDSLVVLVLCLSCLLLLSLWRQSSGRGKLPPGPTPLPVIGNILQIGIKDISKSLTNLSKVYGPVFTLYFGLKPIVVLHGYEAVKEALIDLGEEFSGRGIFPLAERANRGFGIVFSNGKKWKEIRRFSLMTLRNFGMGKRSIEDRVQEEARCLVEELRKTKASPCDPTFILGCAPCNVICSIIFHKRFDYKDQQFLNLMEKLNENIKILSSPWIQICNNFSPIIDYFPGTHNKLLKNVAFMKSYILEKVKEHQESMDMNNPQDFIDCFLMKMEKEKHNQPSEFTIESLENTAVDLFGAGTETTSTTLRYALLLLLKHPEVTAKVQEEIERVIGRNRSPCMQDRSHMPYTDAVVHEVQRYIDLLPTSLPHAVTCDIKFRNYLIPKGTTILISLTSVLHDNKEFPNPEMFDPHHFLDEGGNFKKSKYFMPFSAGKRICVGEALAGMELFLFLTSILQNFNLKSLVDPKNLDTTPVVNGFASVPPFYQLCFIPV
Assay type: in vitro ADME
Conditions: liver microsomes
pIC50: −log10 of the molar value.
quantityName: pIC50

Reported pIC50 ( `COc1cc2ncnc(Nc3cccc(Cl)c3F)c2cc1OCCON1CCN(C)CC1` ) = < 4.52

###

Experiment: Brain tissue binding by equilibrium dialysis
Format: in vitro ADME
Conditions: Sprague-Dawley, rat, rat brain homogenate
Protocol: Plasma protein binding and brain tissue binding were determined by Pharmaron, Inc. using the equilibrium dialysis method. […] Following incubation, the samples were analyzed by LC-MS/MS and the concentrations of the compounds were determined in the buffer and plasma solution chambers.
A collection of compounds and their measured remaining at 6 h, 5 μM

[[record]]
compound = "COc1cc2ncnc(Nc3cccc(Cl)c3F)c2cc1OCCON1CCOCC1"
quantityname = "remaining at 6 h, 5 μM"
reportedmeasurement = "98.3%"

[[record]]
compound = "COc1cc2ncnc(Nc3cccc(Cl)c3F)c2cc1OCCON1CCN(C)CC1"
quantityname = "remaining at 6 h, 5 μM"
reportedmeasurement = "94.7%"

[[record]]
compound = "COc1cc2ncnc(Nc3ccc(F)c(Cl)c3)c2cc1OCCCN1CCOCC1 [Gefitinib (1), Gefitinib, reference compound]"
quantityname = "remaining at 6 h, 5 μM"
reportedmeasurement = "105%"


Reported remaining at 6 h, 5 μM ( CCCc1nc2c(C)cc(-c3nc4ccccc4n3C)cc2n1Cc1ccc(-c2ccccc2C(=O)O)cc1 [Telmisartan, reference compound] ) = 100%

###

Target: LYN (Homo sapiens, UniProt P07948)
Sequence (P07948 whole entry): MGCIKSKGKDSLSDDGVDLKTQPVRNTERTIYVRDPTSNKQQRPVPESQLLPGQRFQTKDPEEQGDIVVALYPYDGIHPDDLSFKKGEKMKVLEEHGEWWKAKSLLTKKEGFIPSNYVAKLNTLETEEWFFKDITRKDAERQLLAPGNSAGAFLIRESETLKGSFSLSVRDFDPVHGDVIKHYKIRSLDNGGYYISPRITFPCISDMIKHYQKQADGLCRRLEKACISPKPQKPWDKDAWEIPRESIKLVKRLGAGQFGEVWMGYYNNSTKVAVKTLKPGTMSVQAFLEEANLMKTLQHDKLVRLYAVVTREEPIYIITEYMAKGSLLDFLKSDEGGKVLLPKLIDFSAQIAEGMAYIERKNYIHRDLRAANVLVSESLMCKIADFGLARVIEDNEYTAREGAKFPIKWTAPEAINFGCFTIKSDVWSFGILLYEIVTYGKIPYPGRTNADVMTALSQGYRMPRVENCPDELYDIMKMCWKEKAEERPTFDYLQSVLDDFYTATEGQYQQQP
quantityName: pKd
Scale note: pKd = -log10(concentration in M).

Considering COc1cc2ncnc(Nc3cccc(Cl)c3F)c2cc1OCCON1CCN(C)CC1 [Compound 9] , its pKd with LYN (Homo sapiens, UniProt P07948) was recorded as 6.96

###

Tested on: MDR1
Test: MDCKII-MDR1 permeability
Type: in vitro ADME, canine
Conditions: dog, MDCK-MDR1
A collection of compounds and their measured efflux ratio at 2 h, 1 µM
Quick one: just the number, no unit, thanks!

[[record]]
chemsmiles = "COc1cc2ncnc(Nc3cccc(Cl)c3F)c2cc1OCCON1CCN(C)CC1"
systemundertest = "MDR1"
reportedmeasurement = 0.9


Considering `COc1cc2ncnc(Nc3ccc(F)c(Cl)c3)c2cc1OCCON1CCN(C)CC1` , its efflux ratio at 2 h, 1 µM with MDR1 was recorded as 8.7

Considering `COc1cc2ncnc(Nc3cccc(Cl)c3F)c2cc1OCCON1CCOCC1` , its efflux ratio at 2 h, 1 µM with MDR1 was recorded as 1.1

Considering `COc1cc2ncnc(Nc3ccc(F)c(Cl)c3)c2cc1OCCON1CCOCC1` , its efflux ratio at 2 h, 1 µM with MDR1 was recorded as 2

###

Assay: Plasma stability
Type: in vitro ADME, Sprague-Dawley rat
Conditions: rat plasma, 30 min
quantityName: Remaining Percentages (%)
Unit % implied. Number only.

[[record]]
molecule = "CC[C@H](C)C(=O)O[C@H]1C[C@@H](C)C=C2C=C[C@H](C)[C@H](CC[C@@H]3C[C@@H](O)CC(=O)O3)[C@H]21 [Mevinolin, reference compound]"
reportedmeasurement = 0.42

[[record]]
molecule = "COc1cc2ncnc(Nc3ccc(F)c(Cl)c3)c2cc1OCCCN1CCOCC1 [Gefitinib (1), Gefitinib, reference compound]"
reportedmeasurement = 98.28

[[record]]
molecule = "COc1cc2ncnc(Nc3ccc(F)c(Cl)c3)c2cc1OCCON1CCOCC1"
reportedmeasurement = 99.35

[[record]]
molecule = "COc1cc2ncnc(Nc3cccc(Cl)c3F)c2cc1OCCON1CCN(C)CC1"
reportedmeasurement = 95.56


Reported Remaining Percentages ( `COc1cc2ncnc(Nc3cccc(Cl)c3F)c2cc1OCCON1CCOCC1` ) = 93.84

###

Assay: Solubility assay
Assay type: physicochemical
Conditions: buffer, pH 7.4, aqueous buffer; read-out: Aq. Sol.
A collection of molecules and their measured solubility kinetic at 2 h
Hi, when you answer, please include the unit after the number. Thanks!

Reported solubility kinetic at 2 h ( COc1cc2ncnc(Nc3ccc(F)c(Cl)c3)c2cc1OCCON1CCN(C)CC1 [Compound 8] ) = 18 µM

Reported solubility kinetic at 2 h ( COc1cc2ncnc(Nc3ccc(F)c(Cl)c3)c2cc1OCCON1CCOCC1 [Compound 6] ) = 1 µM

Reported solubility kinetic at 2 h ( COc1cc2ncnc(Nc3ccc(F)c(Cl)c3)c2cc1OCCCN1CCOCC1 [Gefitinib (1), Gefitinib, reference compound] ) = 4 µM

Reported solubility kinetic at 2 h ( COc1cc2ncnc(Nc3cccc(Cl)c3F)c2cc1OCCON1CCOCC1 [Compound 7] ) = 36 µM

Reported solubility kinetic at 2 h ( COc1cc2ncnc(Nc3cccc(Cl)c3F)c2cc1OCCON1CCN(C)CC1 [Compound 9] ) = 199 µM

###

Experiment: Brain tissue binding by equilibrium dialysis
Format: in vitro ADME, mouse
Conditions: CD-1, mouse, brain homogenate; read-out: fu,brain% / %Unboundbrain
quantityName: fraction unbound at 6 h, 5 μM
Quick one: just the number, no unit, thanks!

[[record]]
compound = "CCCc1nc2c(C)cc(-c3nc4ccccc4n3C)cc2n1Cc1ccc(-c2ccccc2C(=O)O)cc1 [Telmisartan, reference compound]"
reportedmeasurement = 0.0143


// below: fraction unbound at 6 h, 5 μM requested for another compound
Reported fraction unbound at 6 h, 5 μM ( `COc1cc2ncnc(Nc3cccc(Cl)c3F)c2cc1OCCON1CCN(C)CC1` ) = 0.0405

###

Test: Pharmacokinetic study
Assay type: in vivo, Sprague-Dawley rats
Conditions: male, Sprague-Dawley, plasma; Rat 20 mg/kg (PO)
quantityName: Cmax at 24 h (nM)
Unit nM implied. Number only.

Reported Cmax at 24 h ( `COc1cc2ncnc(Nc3cccc(Cl)c3F)c2cc1OCCON1CCN(C)CC1` ) = 653

###

Assay: Oral CNS pharmacokinetic assessment
Assay type: in vivo, Sprague-Dawley rats
Details: male, Sprague-Dawley, brain; Rat 20 mg/kg (PO); read-out: Kp,uu brain (AUCinf)
quantityName: Kp uu at 24 h
Quick one: just the number, no unit, thanks!

Reported Kp uu at 24 h ( `COc1cc2ncnc(Nc3cccc(Cl)c3F)c2cc1OCCON1CCN(C)CC1` ) = 0.33

###

Assay: Caco-2 permeability
Assay type: in vitro ADME
Details: human, Caco-2; 5 μM, 2 h
A collection of compounds and their measured Papp A→B at 2 h, 5 µM
Unit ×10⁻⁶ cm/s implied. Number only.

[[record]]
chemsmiles = "COc1cc2ncnc(Nc3cccc(Cl)c3F)c2cc1OCCON1CCOCC1"
u = "×10⁻⁶ cm/s"
reportedmeasurement = 10.9

[[record]]
chemsmiles = "COc1cc2ncnc(Nc3ccc(F)c(Cl)c3)c2cc1OCCON1CCN(C)CC1"
u = "×10⁻⁶ cm/s"
reportedmeasurement = 0.6

[[record]]
chemsmiles = "COc1cc2ncnc(Nc3cccc(Cl)c3F)c2cc1OCCON1CCN(C)CC1"
u = "×10⁻⁶ cm/s"
reportedmeasurement = 6.5


// below: Papp A→B at 2 h, 5 µM requested for another compound
Reported Papp A→B at 2 h, 5 µM ( `COc1cc2ncnc(Nc3ccc(F)c(Cl)c3)c2cc1OCCON1CCOCC1` ) = 5.6
